Measured Biodistribution Muscle values are reported for all entries that follow.
- System: CAIX-expressing SK-RC-52 tumors
- experiment: Biodistribution in mice bearing SK-RC-52 xenografts
- Format: in vivo
- experimental-context: 1 h post-injection, 740 kBq i.v.
Unit % ID/g implied. Number only.

# annotated cases, reported Biodistribution Muscle shown
molecule: CC(CCC(=O)N[C@@H](CC(=O)N[C@@H](CC(=O)N[C@@H](CCCCn1cc(CCCC(=O)Nc2nnc(S(N)(=O)=O)s2)nn1)C(=O)NCCOCCOCCNC(=O)CN1CCN2CCN(CC1)CC(=O)[O][Al]([18F])[O]C(=O)C2)C(=O)O)C(=O)O)(c1ccc(O)cc1)c1ccc(O)cc1 [[Al^18F]XYIMSR-04]
tgt: CAIX-expressing SK-RC-52 tumors
Biodistribution Muscle, % ID/g: 1.74

molecule: CC(CCC(=O)N[C@@H](CC(=O)N[C@@H](CC(=O)N[C@@H](CCCCn1cc(CCCC(=O)Nc2nnc(S(N)(=O)=O)s2)nn1)C(=O)NCCOCCOCCNC(=O)CN1CCN(CC(=O)[O-])CCN(CC(=O)[O-])CCN(CC(=O)[O-])CC1)C(=O)O)C(=O)O)(c1ccc(O)cc1)c1ccc(O)cc1.[177Lu+3] [[^177Lu]XYIMSR-01]
tgt: CAIX-expressing SK-RC-52 tumors
Biodistribution Muscle, % ID/g: 1.42

molecule: CC(CCC(=O)N[C@@H](CC(=O)N[C@@H](CC(=O)N[C@@H](CCCCn1cc(CCCC(=O)Nc2nnc(S(N)(=O)=O)s2)nn1)C(=O)NCCOCCOCCNC(=O)CN1CCN(CC(=O)[O-])CCN(CC(=O)[O-])CCN(CC(=O)[O-])CC1)C(=O)O)C(=O)O)(c1ccc(O)cc1)c1ccc(O)cc1.[111In+3] [[^111In]XYIMSR-01]
tgt: CAIX-expressing SK-RC-52 tumors
Biodistribution Muscle, % ID/g: 2.34

Moving on to another molecule below.
Look up Biodistribution Muscle for this molecule: CC(CCC(=O)N[C@@H](CC(=O)N[C@@H](CC(=O)N[C@@H](CCCCn1cc(CCCC(=O)Nc2nnc(S(N)(=O)=O)s2)nn1)C(=O)NCCOCCOCCNC(=S)Nc1ccc(CC2CN(CC(=O)[O-])CCN(CC(=O)[O-])CCN2CC(=O)O)cc1)C(=O)O)C(=O)O)(c1ccc(O)cc1)c1ccc(O)cc1.[64Cu+2] (stereo partly shown) [[^64Cu]XYIMSR-06]
1.28

###

- System: CAIX-expressing SK-RC-52 tumors
- experiment: Biodistribution in mice bearing SK-RC-52 xenografts
- Type: in vivo
- experimental-context: 1 h post-injection, 740 kBq i.v.
Measured Biodistribution Small intestine values are reported for all entries that follow.
Unit % ID/g implied. Number only.

Look up Biodistribution Small intestine for this compound: CC(CCC(=O)N[C@@H](CC(=O)N[C@@H](CC(=O)N[C@@H](CCCCn1cc(CCCC(=O)Nc2nnc(S(N)(=O)=O)s2)nn1)C(=O)NCCOCCOCCNC(=O)CN1CCN(CC(=O)[O-])CCN(CC(=O)[O-])CCN(CC(=O)[O-])CC1)C(=O)O)C(=O)O)(c1ccc(O)cc1)c1ccc(O)cc1.[111In+3] [[^111In]XYIMSR-01]
9.37

Now give it for CC(CCC(=O)N[C@@H](CC(=O)N[C@@H](CC(=O)N[C@@H](CCCCn1cc(CCCC(=O)Nc2nnc(S(N)(=O)=O)s2)nn1)C(=O)NCCOCCOCCNC(=O)CN1CCN(CC(=O)[O-])CCN(CC(=O)[O-])CCN(CC(=O)[O-])CC1)C(=O)O)C(=O)O)(c1ccc(O)cc1)c1ccc(O)cc1.[177Lu+3] [[^177Lu]XYIMSR-01] too.
6.11

Now give it for CC(CCC(=O)N[C@@H](CC(=O)N[C@@H](CC(=O)N[C@@H](CCCCn1cc(CCCC(=O)Nc2nnc(S(N)(=O)=O)s2)nn1)C(=O)NCCOCCOCCNC(=S)Nc1ccc(CC2CN(CC(=O)[O-])CCN(CC(=O)[O-])CCN2CC(=O)O)cc1)C(=O)O)C(=O)O)(c1ccc(O)cc1)c1ccc(O)cc1.[64Cu+2] (stereo partly shown) [[^64Cu]XYIMSR-06] too.
7.35

Now give it for CC(CCC(=O)N[C@@H](CC(=O)N[C@@H](CC(=O)N[C@@H](CCCCn1cc(CCCC(=O)Nc2nnc(S(N)(=O)=O)s2)nn1)C(=O)NCCOCCOCCNC(=O)CN1CCN2CCN(CC1)CC(=O)[O][Al]([18F])[O]C(=O)C2)C(=O)O)C(=O)O)(c1ccc(O)cc1)c1ccc(O)cc1 [[Al^18F]XYIMSR-04] too.
9.59

###

- System: CAIX-expressing SK-RC-52 tumors
- experiment: Biodistribution in mice bearing SK-RC-52 xenografts
- Assay type: in vivo
- experimental-context: 1 h post-injection, 740 kBq i.v.
Measured Biodistribution Kidney values are reported for all entries that follow.
Unit % ID/g implied. Number only.

molecule: CC(CCC(=O)N[C@@H](CC(=O)N[C@@H](CC(=O)N[C@@H](CCCCn1cc(CCCC(=O)Nc2nnc(S(N)(=O)=O)s2)nn1)C(=O)NCCOCCOCCNC(=S)Nc1ccc(CC2CN(CC(=O)[O-])CCN(CC(=O)[O-])CCN2CC(=O)O)cc1)C(=O)O)C(=O)O)(c1ccc(O)cc1)c1ccc(O)cc1.[64Cu+2] (stereo partly shown) [[^64Cu]XYIMSR-06]
unit-abbrev: % ID/g
measured-number: 33.65
//
molecule: CC(CCC(=O)N[C@@H](CC(=O)N[C@@H](CC(=O)N[C@@H](CCCCn1cc(CCCC(=O)Nc2nnc(S(N)(=O)=O)s2)nn1)C(=O)NCCOCCOCCNC(=O)CN1CCN(CC(=O)[O-])CCN(CC(=O)[O-])CCN(CC(=O)[O-])CC1)C(=O)O)C(=O)O)(c1ccc(O)cc1)c1ccc(O)cc1.[177Lu+3] [[^177Lu]XYIMSR-01]
unit-abbrev: % ID/g
measured-number: 40.77
//
molecule: CC(CCC(=O)N[C@@H](CC(=O)N[C@@H](CC(=O)N[C@@H](CCCCn1cc(CCCC(=O)Nc2nnc(S(N)(=O)=O)s2)nn1)C(=O)NCCOCCOCCNC(=O)CN1CCN2CCN(CC1)CC(=O)[O][Al]([18F])[O]C(=O)C2)C(=O)O)C(=O)O)(c1ccc(O)cc1)c1ccc(O)cc1 [[Al^18F]XYIMSR-04]
unit-abbrev: % ID/g
measured-number: 50.84

Moving on to another molecule below.
Hello, I am looking for reported Biodistribution Kidney with CAIX-expressing SK-RC-52 tumors for CC(CCC(=O)N[C@@H](CC(=O)N[C@@H](CC(=O)N[C@@H](CCCCn1cc(CCCC(=O)Nc2nnc(S(N)(=O)=O)s2)nn1)C(=O)NCCOCCOCCNC(=O)CN1CCN(CC(=O)[O-])CCN(CC(=O)[O-])CCN(CC(=O)[O-])CC1)C(=O)O)C(=O)O)(c1ccc(O)cc1)c1ccc(O)cc1.[111In+3] [[^111In]XYIMSR-01] . Could you help?
71.26

Data provenance: patent US10857246B2
